The values you see were collected from patent US12390437B2.

# concentration at 24 h annotations
Assay: Mouse pharmacokinetic study, oral administration
Assay type: in vivo
Conditions: male, C57BL/6, mouse, plasma, po, 100 mg/kg, plasma, male C57BL/6 mice, oral gavage 100 mg/kg, 24 h; read-out: Parent compound concentrations following oral administration, Time 24 h

compound: C=C(CC(=O)OC(C)(C)CCCCC)C(=O)OCC(=O)O
readout relation: =
concentration at 24 h (ng/mL): 5.6

compound: C=C(CC(=O)O[C@H](C)CCCCCC)C(=O)OCc1nn[nH]n1
readout relation: <
concentration at 24 h (ng/mL): 4

compound: C=C(CC(=O)OCCCCCC)C(=O)OCC(=O)O
readout relation: <
concentration at 24 h (ng/mL): 0.8

compound: C=C(CC(=O)OC)C(=O)OC [dimethyl itaconate, reference compound]
readout relation: <
concentration at 24 h (ng/mL): 24

compound: C=C(CC(=O)OC(CCCC)CCCC)C(=O)OCC(=O)O
readout relation: <
concentration at 24 h (ng/mL): 4

compound: C=C(CC(=O)O[C@H](C)CCCCCC)C(=O)OCC(=O)O
readout relation: =
concentration at 24 h (ng/mL): 25

compound: C=C(CC(=O)O[C@@H](CC)CCCCC)C(=O)OCC(=O)O
readout relation: =
concentration at 24 h (ng/mL): 8.1

compound: C=C(CC(=O)O[C@@H](CCCCCC)C(F)(F)F)C(=O)OCC(=O)O
readout relation: =
concentration at 24 h (ng/mL): 5.9

compound: C=C(CC(=O)OC1CCCCCCC1)C(=O)OCCC(=O)O
readout relation: <
concentration at 24 h (ng/mL): 0.8

###

Test system: IL-6 cytokine output from THP-1s
Assay: THP-1 AlphaLISA IL-6 cytokine assay
Format: cell-based, human
Conditions: Homo sapiens; PMA-differentiated THP-1 cells, LPS 24 hr then Nigericin 1 hour
Procedure: Measuring Inhibitory Effects on IL-1β and IL-6 Cytokine Output from THP-1s The cytokine inhibition profiles of compounds of formula (IW-1) were determined in a differentiated THP-1 cell assay. […] Reagents from each of the IL-1β and IL-6 commercial kits (Perkin Elmer) were prepared and run according to the manufacturer's instructions. Subsequently, fluorescence signal detection in a microplate reader was measured (EnVision® Multilabel Reader, Perkin Elmer). […]
pIC50: −log10 of the molar value.
This section presents compounds with their documented pIC50 values.

compound: C=C(CC(=O)OC1CCCCC1)C(=O)OC(C)CS(C)(=O)=O (centres unmarked)
pIC50: 5.06
//
compound: C=C(CC(=O)OCCCCCCCC)C(=O)OCCC#N
pIC50: 5.22
//
compound: C=C(CC(=O)OCCCCCC)C(=O)OCCC(=O)O
pIC50: 4.73
//
compound: C=C(CC(=O)OCCCCCCCC)C(=O)OC(C)CC#N (centres unmarked)
pIC50: 5.19
//
compound: C=C(CC(=O)OCCCCCC)C(=O)OCC(=O)NS(C)(=O)=O
pIC50: 4.32
//
compound: C=C(CC(=O)OC1CCCCCCC1)C(=O)OC1CCN(S(C)(=O)=O)CC1
pIC50: 5.66
//
compound: C=C(CC(=O)OC1CCCCCCC1)C(=O)OCCN1CCCC1=O
pIC50: 5.02
//
compound: C=C(CC(=O)OCCCCCCCC)C(=O)OCC(C)(C)C#N
pIC50: 5.32
//
compound: C=C(CC(=O)OCCS(=O)(=O)c1ccc(C)cc1)C(=O)OCC(=O)O
pIC50: 4.52
//
compound: C=C(CC(=O)OCCCCCCCC)C(=O)OC(C)C(=O)O (centres unmarked)
pIC50: 4.87
//
compound: C=C(CC(=O)O[C@H](C)CCCCCC)C(=O)OC1CS(=O)(=O)C1
pIC50: 5.59
//
compound: C=C(CC(=O)OCCCCCCCC)C(=O)OCCNS(C)(=O)=O
pIC50: 5.27
//
compound: C=C(CC(=O)OCCCCCC)C(=O)OC1COC1
pIC50: 5.17
//
compound: C=C(CC(=O)OC1CCCCCCC1)C(=O)OCCC(=O)O
pIC50: 4.72
//
compound: C=C(CC(=O)O[C@@H](C)CCCCCC)C(=O)OCCC(=O)O
pIC50: 4.66
//
compound: C=C(CC(=O)OCCCCCCCC)C(=O)O[C@@H]1CCOC1
pIC50: 5.38
//
compound: C=C(CC(=O)OCCCCCCCC)C(=O)OC1CN(C(C)=O)C1
pIC50: 5.77
//
compound: C=C(CC(=O)OCCCCCCCC)C(=O)OCCC(=O)N(C)C
pIC50: 4.92
//
compound: C=C(CC(=O)OCCCCCCCC)C(=O)OC1CC(F)(F)C1
pIC50: 5.06
//
compound: C=C(CC(=O)OC1CCC1)C(=O)OCC(=O)O
pIC50: 4.22
